Below is a list of entries, each paired with its recorded viability, T/C value.
- Test system: 188146-221-R-J1-PDC complex spheroid viability
- procedure-text: Anticancer human tumor 188146-221-R-J1-PDC patient-derived colon adenocarcinoma cell line growth inhibition [POLQ]
- cond: second compound 10 µM; first compound 1 µM; stronger effect = lower value
Lab book: enter the figure in %, no units written.

Below: 2 molecules and their reported viability, T/C.
INSERT INTO measurements (molecule, system_name, parameter, test_result) VALUES
  ('O=C(Nc1ccc(O)c(NS(=O)(=O)c2ccc(F)cc2)c1)c1ccc(-c2ccccc2)cc1 + Cc1cccc(N(C)C(=O)C2C(O)CCN2c2nc(C)cc(C(F)(F)F)c2C#N)c1', '188146-221-R-J1-PDC complex spheroid viability', 'viability, T/C', 87.3),
  ('C#Cc1c(F)ccc2cc(O)cc(-c3ncc4c(N5CC6CCC(C5)N6)nc(OCC56CCCN5CC(F)C6)nc4c3F)c12 (stereo not drawn) + COC1C(OC(N)=O)C(O)C(Oc2ccc3c(O)c(NC(=O)c4ccc(O)c(CC=C(C)C)c4)c(=O)oc3c2C)OC1(C)C', '188146-221-R-J1-PDC complex spheroid viability', 'viability, T/C', 97.2);

Here's the next entry for you.
Entry COc1cccc(OCCCN)c1-c1cc(Nc2cnc(C#N)cn2)n[nH]1 + COC1C(OC(N)=O)C(O)C(Oc2ccc3c(O)c(NC(=O)c4ccc(O)c(CC=C(C)C)c4)c(=O)oc3c2C)OC1(C)C , system 188146-221-R-J1-PDC complex spheroid viability: what viability, T/C was measured?
9.97

====

Below is a list of entries, each paired with its recorded viability, T/C value.
- System: 188146-221-R-J1-PDC complex spheroid viability
- procedure-text: Anticancer human tumor 188146-221-R-J1-PDC cell line growth inhibition [POLQ];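 also: spheroids exposed to compounds for seven days; 100% = DMSO vehicle control viability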
- cond: second compound 0.0316 µM; first compound 0.316 µM; stronger effect = lower value
Lab book: enter the figure in %, no units written.

Returns the measured viability, T/C for the input molecule. Input: CCc1c2c(nc3ccc(O)cc13)-c1cc3c(c(=O)n1C2)COC(=O)[C@]3(O)CC + COC1C(OC(N)=O)C(O)C(Oc2ccc3c(O)c(NC(=O)c4ccc(O)c(CC=C(C)C)c4)c(=O)oc3c2C)OC1(C)C
10.8

Returns the measured viability, T/C for the input molecule. Input: O=C(Nc1ccc(O)c(NS(=O)(=O)c2ccc(F)cc2)c1)c1ccc(-c2ccccc2)cc1 + Nc1ccc(C#CCN(C(=O)Cc2ncc(C(F)(F)F)cc2C(F)(F)F)c2ccc(F)cc2)nn1
88

Returns the measured viability, T/C for the input molecule. Input: CCc1cc2c(N3CCc4c(cc(Cn5ccnc5)cc4-c4cn(C)nc4C(F)(F)F)C3=O)cc(C)nc2c(OC)n1 + Cc1cccc(N(C)C(=O)C2C(O)CCN2c2nc(C)cc(C(F)(F)F)c2C#N)c1
87

====

- Test system: 188146-221-R-J1-PDC complex spheroid viability
- procedure-text: Anticancer human tumor 188146-221-R-J1-PDC cell line growth inhibition [POLQ];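 also: spheroids exposed to compounds for seven days; 100% = DMSO vehicle control viability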
- cond: second compound 3.16 µM; first compound 0.000316 µM; stronger effect = lower value
parameter: viability, T/C (%)
Lab book: enter the figure in %, no units written.

INSERT INTO results (molecule, parameter, unit_info, test_result) VALUES
  ('CC[C@@]1(O)C(=O)OCc2c1cc1n(c2=O)Cc2cc3c(CN(C)C)c(O)ccc3nc2-1 + COC1C(OC(N)=O)C(O)C(Oc2ccc3c(O)c(NC(=O)c4ccc(O)c(CC=C(C)C)c4)c(=O)oc3c2C)OC1(C)C', 'viability, T/C', '%', 104),
  ('Cn1ncnc1[C@H]1c2n[nH]c(=O)c3cc(F)cc(c23)N[C@@H]1c1ccc(F)cc1 + COC1C(OC(N)=O)C(O)C(Oc2ccc3c(O)c(NC(=O)c4ccc(O)c(CC=C(C)C)c4)c(=O)oc3c2C)OC1(C)C', 'viability, T/C', '%', 108);

Here's the next entry for you.
Returns the measured viability, T/C for the input molecule. Input: CC[C@@]1(O)C(=O)OCc2c1cc1n(c2=O)Cc2cc3c(CN(C)C)c(O)ccc3nc2-1 + Cc1cccc(N(C)C(=O)C2C(O)CCN2c2nc(C)cc(C(F)(F)F)c2C#N)c1
97.2

====

- Tested on: 188146-221-R-J1-PDC complex spheroid viability
- procedure-text: Anticancer human tumor 188146-221-R-J1-PDC cell line growth inhibition [POLQ]; active = viability on the fitted dose curve at most 10% of control; inactive = the rest;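 also: spheroids exposed to compounds for seven days; 100% = DMSO vehicle control viability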
- cond: second compound 10 µM; first compound 10 µM
The reply should name one outcome from 1 for active, -1 for inactive

Example cases with answers are listed next.
INSERT INTO measurements (compound, group_label) VALUES
  ('CC1COCCN1c1cc(C2(S(C)(=N)=O)CC2)nc(-c2ccnc3[nH]ccc23)n1 (stereo not given) + COC1C(OC(N)=O)C(O)C(Oc2ccc3c(O)c(NC(=O)c4ccc(O)c(CC=C(C)C)c4)c(=O)oc3c2C)OC1(C)C', -1),
  ('COc1cc(C2c3cc4c(cc3C(OC3OC5COC(C)OC5C(O)C3O)C3COC(=O)C23)OCO4)cc(OC)c1O (stereo not given) + COC1C(OC(N)=O)C(O)C(Oc2ccc3c(O)c(NC(=O)c4ccc(O)c(CC=C(C)C)c4)c(=O)oc3c2C)OC1(C)C', -1),
  ('CC(C)n1c(=O)n(C)c2cnc3cc(F)c(-c4ccc(OCCCN5CCCCC5)nc4)cc3c21 + Cc1cccc(N(C)C(=O)C2C(O)CCN2c2nc(C)cc(C(F)(F)F)c2C#N)c1', -1),
  ('C=CC(=O)N1CCN(c2nc(=O)n(-c3c(C)ccnc3C(C)C)c3nc(-c4c(O)cccc4F)c(F)cc23)C(C)C1 (stereo not given) + COC1C(OC(N)=O)C(O)C(Oc2ccc3c(O)c(NC(=O)c4ccc(O)c(CC=C(C)C)c4)c(=O)oc3c2C)OC1(C)C', -1),
  ('O=C(c1cc(Cc2n[nH]c(=O)c3ccccc23)ccc1F)N1CCN(C(=O)C2CC2)CC1 + Nc1ccc(C#CCN(C(=O)Cc2ncc(C(F)(F)F)cc2C(F)(F)F)c2ccc(F)cc2)nn1', -1),
  ('COc1cc(C2c3cc4c(cc3C(OC3OC5COC(C)OC5C(O)C3O)C3COC(=O)C23)OCO4)cc(OC)c1O (stereo not given) + Cc1cccc(N(C)C(=O)C2C(O)CCN2c2nc(C)cc(C(F)(F)F)c2C#N)c1', -1),
  ('CCc1cc2c(N3CCc4c(cc(Cn5ccnc5)cc4-c4cn(C)nc4C(F)(F)F)C3=O)cc(C)nc2c(OC)n1 + Nc1ccc(C#CCN(C(=O)Cc2ncc(C(F)(F)F)cc2C(F)(F)F)c2ccc(F)cc2)nn1', -1),
  ('CC1COCCN1c1cc(C2(S(C)(=N)=O)CC2)nc(-c2ccnc3[nH]ccc23)n1 (stereo not given) + Cc1cccc(N(C)C(=O)C2C(O)CCN2c2nc(C)cc(C(F)(F)F)c2C#N)c1', -1),
  ('CCCS(=O)(=O)Nc1ccc(F)c(C(=O)c2c[nH]c3ncc(-c4ccc(Cl)cc4)cc23)c1F + Nc1ccc(C#CCN(C(=O)Cc2ncc(C(F)(F)F)cc2C(F)(F)F)c2ccc(F)cc2)nn1', -1),
  ('CC1COCCN1c1cc(-c2ccnn2C)c2ccnc(-c3ccn[nH]3)c2n1 (stereo not given) + Nc1ccc(C#CCN(C(=O)Cc2ncc(C(F)(F)F)cc2C(F)(F)F)c2ccc(F)cc2)nn1', -1);

Called result for O=c1[nH]cc(F)c(=O)[nH]1 + COC1C(OC(N)=O)C(O)C(Oc2ccc3c(O)c(NC(=O)c4ccc(O)c(CC=C(C)C)c4)c(=O)oc3c2C)OC1(C)C
-1

Called result for COc1ccc([C@@H](O)c2cc(-c3ncnc4cc(N5CCOCC5)ccc34)c(F)cc2Cl)nn1 + Nc1ccc(C#CCN(C(=O)Cc2ncc(C(F)(F)F)cc2C(F)(F)F)c2ccc(F)cc2)nn1
-1

Called result for CC1COCCN1c1cc(C2(S(C)(=N)=O)CC2)nc(-c2ccnc3[nH]ccc23)n1 (stereo not given) + Nc1ccc(C#CCN(C(=O)Cc2ncc(C(F)(F)F)cc2C(F)(F)F)c2ccc(F)cc2)nn1
-1

Called result for C=CC(=O)N1CCN(c2nc(=O)n(-c3c(C)ccnc3C(C)C)c3nc(-c4c(O)cccc4F)c(F)cc23)C(C)C1 (stereo not given) + Cc1cccc(N(C)C(=O)C2C(O)CCN2c2nc(C)cc(C(F)(F)F)c2C#N)c1
-1

Called result for COc1cccc2c1C(=O)c1c(O)c3c(c(O)c1C2=O)CC(O)(C(=O)CO)CC3OC1CC(N)C(O)C(C)O1 (stereo not given) + COC1C(OC(N)=O)C(O)C(Oc2ccc3c(O)c(NC(=O)c4ccc(O)c(CC=C(C)C)c4)c(=O)oc3c2C)OC1(C)C
1

Called result for CCCS(=O)(=O)Nc1ccc(F)c(C(=O)c2c[nH]c3ncc(-c4ccc(Cl)cc4)cc23)c1F + Cc1cccc(N(C)C(=O)C2C(O)CCN2c2nc(C)cc(C(F)(F)F)c2C#N)c1
-1

Called result for Nc1ccn(C2OC(CO)C(O)C2(F)F)c(=O)n1 (stereo not given) + Nc1ccc(C#CCN(C(=O)Cc2ncc(C(F)(F)F)cc2C(F)(F)F)c2ccc(F)cc2)nn1
-1

Called result for COc1cc2cc(C(=O)CCC(=O)O)sc2cc1OC + COC1C(OC(N)=O)C(O)C(Oc2ccc3c(O)c(NC(=O)c4ccc(O)c(CC=C(C)C)c4)c(=O)oc3c2C)OC1(C)C
-1

Called result for O=C(Nc1ccc(O)c(NS(=O)(=O)c2ccc(F)cc2)c1)c1ccc(-c2ccccc2)cc1 + COC1C(OC(N)=O)C(O)C(Oc2ccc3c(O)c(NC(=O)c4ccc(O)c(CC=C(C)C)c4)c(=O)oc3c2C)OC1(C)C
-1

Called result for C#Cc1c(F)ccc2cc(O)cc(-c3ncc4c(N5CC6CCC(C5)N6)nc(OCC56CCCN5CC(F)C6)nc4c3F)c12 (stereo not given) + Cc1cccc(N(C)C(=O)C2C(O)CCN2c2nc(C)cc(C(F)(F)F)c2C#N)c1
-1
